Origin of values: PubChem BioAssay AID2060910

- Test system: 242566-281-R-J2-PDC complex spheroid viability;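 further: spheroids exposed to compound for 7 days before readout; 100% = DMSO vehicle control wells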
- MEASUREMENT_PROTOCOL: Anticancer human tumor 242566-281-R-J2-PDC patient-derived pancreatic carcinoma cell line growth inhibition [RAS]
- PROTOCOL_CONDITIONS: second compound 0.1 µM; first compound 0.1 µM; active compounds read low
Reported values of viability, T/C for individual entries
Respond with the bare value in %.

COMPOUND | SYSTEM | UNIT_ABBREVIATION | ENDPOINT_VALUE
CCN1CCN(Cc2ccc(Nc3ncc(F)c(-c4cc(F)c5nc(C)n(C(C)C)c5c4)n3)nc2)CC1 + C#Cc1c(F)ccc2cc(O)cc(-c3ncc4c(N5CC6CCC(C5)N6)nc(OCC56CCCN5CC(F)C6)nc4c3F)c12 | 242566-281-R-J2-PDC complex spheroid viability | % | 56.5
CC(Nc1ccc2c(c1)OCCn1cc(N3C(=O)OCC3C(F)F)nc1-2)C(N)=O (stereo not drawn) + C=CC(=O)N1CCN(c2nc(OCC3CCCN3C)nc3c(F)c(-c4nc(N)cc(C)c4C(F)(F)F)c(Cl)cc23)C(C)C1 | 242566-281-R-J2-PDC complex spheroid viability | % | 105

Would you kindly look at the next entry?
*Q* Bench note: what viability, T/C did CC(C)n1nc(-c2ccc3oc(N)nc3c2)c2c(N)ncnc21 + C#Cc1c(F)ccc2cc(O)cc(-c3ncc4c(N5CC6CCC(C5)N6)nc(OCC56CCCN5CC(F)C6)nc4c3F)c12 show?
*A* 40
